Catalogue of viability, T/C readings, one per entry.
Test system: 299254-011-R-J1-PDC complex spheroid viability
Test: Anticancer human tumor 299254-011-R-J1-PDC patient-derived melanoma cell line growth inhibition [POLQ]
Details: second compound 0.0316 µM; first compound 0.316 µM; stronger effect = lower value
Procedure: Multicellular complex tumor spheroid response to Polymerase (POL) inhibitors (novobiocin, ART-558, RP6685) in combination with a variety of drugs and investigational agents in selected tumor cell lines The POL inhibitors (novobiocin, ART-558, and RP6685) were evaluated both individually and in combination with standard of care and investigational anticancer small molecules within a complex spheroid model of solid tumors. . […]
measured.quantity: viability, T/C (%)

[[record]]
molecule = "COc1cccc(OCCCN)c1-c1cc(Nc2cnc(C#N)cn2)n[nH]1 + COC1C(OC(N)=O)C(O)C(Oc2ccc3c(O)c(NC(=O)c4ccc(O)c(CC=C(C)C)c4)c(=O)oc3c2C)OC1(C)C"
observed = 41.6

[[record]]
molecule = "Nc1ccn(C2OC(CO)C(O)C2(F)F)c(=O)n1 (stereo not drawn) + Cc1cccc(N(C)C(=O)C2C(O)CCN2c2nc(C)cc(C(F)(F)F)c2C#N)c1"
observed = 31.7

[[record]]
molecule = "O=C(c1cc(Cc2n[nH]c(=O)c3ccccc23)ccc1F)N1CCN(C(=O)C2CC2)CC1 + Nc1ccc(C#CCN(C(=O)Cc2ncc(C(F)(F)F)cc2C(F)(F)F)c2ccc(F)cc2)nn1"
observed = 92.4

[[record]]
molecule = "C=CC(=O)N1CCN(c2nc(=O)n(-c3c(C)ccnc3C(C)C)c3nc(-c4c(O)cccc4F)c(F)cc23)C(C)C1 (stereo not drawn) + Cc1cccc(N(C)C(=O)C2C(O)CCN2c2nc(C)cc(C(F)(F)F)c2C#N)c1"
observed = 72.8

[[record]]
molecule = "CC1COCCN1c1cc(-c2ccnn2C)c2ccnc(-c3ccn[nH]3)c2n1 (stereo not drawn) + Nc1ccc(C#CCN(C(=O)Cc2ncc(C(F)(F)F)cc2C(F)(F)F)c2ccc(F)cc2)nn1"
observed = 43.7

[[record]]
molecule = "CCc1cc2c(N3CCc4c(cc(Cn5ccnc5)cc4-c4cn(C)nc4C(F)(F)F)C3=O)ccnc2c(OC)n1 + COC1C(OC(N)=O)C(O)C(Oc2ccc3c(O)c(NC(=O)c4ccc(O)c(CC=C(C)C)c4)c(=O)oc3c2C)OC1(C)C"
observed = 111

[[record]]
molecule = "C=CC(=O)N1CCN(c2nc(=O)n(-c3c(C)ccnc3C(C)C)c3nc(-c4c(O)cccc4F)c(F)cc23)C(C)C1 (stereo not drawn) + COC1C(OC(N)=O)C(O)C(Oc2ccc3c(O)c(NC(=O)c4ccc(O)c(CC=C(C)C)c4)c(=O)oc3c2C)OC1(C)C"
observed = 64.3

[[record]]
molecule = "COc1cc(C2c3cc4c(cc3C(OC3OC5COC(C)OC5C(O)C3O)C3COC(=O)C23)OCO4)cc(OC)c1O (stereo not drawn) + Cc1cccc(N(C)C(=O)C2C(O)CCN2c2nc(C)cc(C(F)(F)F)c2C#N)c1"
observed = 102

[[record]]
molecule = "COc1cccc(OCCCN)c1-c1cc(Nc2cnc(C#N)cn2)n[nH]1 + Cc1cccc(N(C)C(=O)C2C(O)CCN2c2nc(C)cc(C(F)(F)F)c2C#N)c1"
observed = 39.6

[[record]]
molecule = "CNCc1ccc(-c2[nH]c3cc(F)cc4c3c2CCNC4=O)cc1 + Nc1ccc(C#CCN(C(=O)Cc2ncc(C(F)(F)F)cc2C(F)(F)F)c2ccc(F)cc2)nn1"
observed = 109

[[record]]
molecule = "CCCS(=O)(=O)Nc1ccc(F)c(C(=O)c2c[nH]c3ncc(-c4ccc(Cl)cc4)cc23)c1F + COC1C(OC(N)=O)C(O)C(Oc2ccc3c(O)c(NC(=O)c4ccc(O)c(CC=C(C)C)c4)c(=O)oc3c2C)OC1(C)C"
observed = 107

[[record]]
molecule = "COc1cccc2c1C(=O)c1c(O)c3c(c(O)c1C2=O)CC(O)(C(=O)CO)CC3OC1CC(N)C(O)C(C)O1 (stereo not drawn) + COC1C(OC(N)=O)C(O)C(Oc2ccc3c(O)c(NC(=O)c4ccc(O)c(CC=C(C)C)c4)c(=O)oc3c2C)OC1(C)C"
observed = 55.2

[[record]]
molecule = "CC1COCCN1c1cc(C2(O)CC3CCC(C2)O3)c2cnn(-c3ccn[nH]3)c2n1 (stereo not drawn) + Nc1ccc(C#CCN(C(=O)Cc2ncc(C(F)(F)F)cc2C(F)(F)F)c2ccc(F)cc2)nn1"
observed = 34.3


###

test system: 299254-011-R-J1-PDC complex spheroid viability; assay: Anticancer human tumor 299254-011-R-J1-PDC cell line growth inhibition [POLQ]; details: curve of first compound; second compound 1 µM;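 further: spheroids exposed to drugs for one week before measurement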
pIC50: −log10 of the molar value.
Catalogue of pIC50 readings, one per entry.
measured.quantity: pIC50

[[record]]
molecule = "CCc1c2c(nc3ccc(O)cc13)-c1cc3c(c(=O)n1C2)COC(=O)[C@]3(O)CC + Cc1cccc(N(C)C(=O)C2C(O)CCN2c2nc(C)cc(C(F)(F)F)c2C#N)c1"
measured_quantity = "pIC50"
observed = "< 6.00"

[[record]]
molecule = "C#Cc1c(F)ccc2cc(O)cc(-c3ncc4c(N5CC6CCC(C5)N6)nc(OCC56CCCN5CC(F)C6)nc4c3F)c12 (stereo unspecified) + Cc1cccc(N(C)C(=O)C2C(O)CCN2c2nc(C)cc(C(F)(F)F)c2C#N)c1"
measured_quantity = "pIC50"
observed = "< 5.00"

[[record]]
molecule = "CC[C@@]1(O)C(=O)OCc2c1cc1n(c2=O)Cc2cc3c(CN(C)C)c(O)ccc3nc2-1 + COC1C(OC(N)=O)C(O)C(Oc2ccc3c(O)c(NC(=O)c4ccc(O)c(CC=C(C)C)c4)c(=O)oc3c2C)OC1(C)C"
measured_quantity = "pIC50"
observed = "< 7.00"

[[record]]
molecule = "Cn1ncnc1[C@H]1c2n[nH]c(=O)c3cc(F)cc(c23)N[C@@H]1c1ccc(F)cc1 + COC1C(OC(N)=O)C(O)C(Oc2ccc3c(O)c(NC(=O)c4ccc(O)c(CC=C(C)C)c4)c(=O)oc3c2C)OC1(C)C"
measured_quantity = "pIC50"
observed = "< 7.00"

[[record]]
molecule = "C=CCn1c(=O)c2cnc(Nc3ccc(N4CCN(C)CC4)cc3)nc2n1-c1cccc(C(C)(C)O)n1 + Nc1ccc(C#CCN(C(=O)Cc2ncc(C(F)(F)F)cc2C(F)(F)F)c2ccc(F)cc2)nn1"
measured_quantity = "pIC50"
observed = "< 6.00"

[[record]]
molecule = "O=C(c1cc(Cc2n[nH]c(=O)c3ccccc23)ccc1F)N1CCN(C(=O)C2CC2)CC1 + Cc1cccc(N(C)C(=O)C2C(O)CCN2c2nc(C)cc(C(F)(F)F)c2C#N)c1"
measured_quantity = "pIC50"
observed = "< 5.00"


###

System: 299254-011-R-J1-PDC complex spheroid viability
Experiment: Anticancer human tumor 299254-011-R-J1-PDC cell line growth inhibition [POLQ];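 further: spheroids exposed to drugs for one week before measurement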
Settings: curve of first compound; second compound 3.16 µM
Method: Multicellular complex tumor spheroid response to Polymerase (POL) inhibitors (novobiocin, ART-558, RP6685) in combination with a variety of drugs and investigational agents in selected tumor cell lines The POL inhibitors (novobiocin, ART-558, and RP6685) were evaluated both individually and in combination with standard of care and investigational anticancer small molecules within a complex spheroid model of solid tumors. . […]
measured.quantity: IC50

[[record]]
compound = "C#Cc1c(F)ccc2cc(O)cc(-c3ncc4c(N5CC6CCC(C5)N6)nc(OCC56CCCN5CC(F)C6)nc4c3F)c12 (stereo not drawn) + Nc1ccc(C#CCN(C(=O)Cc2ncc(C(F)(F)F)cc2C(F)(F)F)c2ccc(F)cc2)nn1"
measured_quantity = "IC50"
observed = "> 10 µM"

[[record]]
compound = "CCc1cc2c(N3CCc4c(cc(Cn5ccnc5)cc4-c4cn(C)nc4C(F)(F)F)C3=O)ccnc2c(OC)n1 + COC1C(OC(N)=O)C(O)C(Oc2ccc3c(O)c(NC(=O)c4ccc(O)c(CC=C(C)C)c4)c(=O)oc3c2C)OC1(C)C"
measured_quantity = "IC50"
observed = "> 10 µM"

[[record]]
compound = "CC(C)n1c(=O)n(C)c2cnc3cc(F)c(-c4ccc(OCCCN5CCCCC5)nc4)cc3c21 + COC1C(OC(N)=O)C(O)C(Oc2ccc3c(O)c(NC(=O)c4ccc(O)c(CC=C(C)C)c4)c(=O)oc3c2C)OC1(C)C"
measured_quantity = "IC50"
observed = "> 10 µM"


###

tested on: 299254-011-R-J1-PDC complex spheroid viability; experiment: Anticancer human tumor 299254-011-R-J1-PDC cell line growth inhibition [POLQ]; conditions: curve of first compound; second compound 1 µM;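 further: spheroids exposed to drugs for one week before measurement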
pIC50: −log10 of the molar value.
Catalogue of pIC50 readings, one per entry.
measured.quantity: pIC50

[[record]]
molecule = "O=C(c1cc(Cc2n[nH]c(=O)c3ccccc23)ccc1F)N1CCN(C(=O)C2CC2)CC1 + COC1C(OC(N)=O)C(O)C(Oc2ccc3c(O)c(NC(=O)c4ccc(O)c(CC=C(C)C)c4)c(=O)oc3c2C)OC1(C)C"
observed = "< 5.00"

[[record]]
molecule = "CC(C)n1c(=O)n(C)c2cnc3cc(F)c(-c4ccc(OCCCN5CCCCC5)nc4)cc3c21 + Cc1cccc(N(C)C(=O)C2C(O)CCN2c2nc(C)cc(C(F)(F)F)c2C#N)c1"
observed = "< 5.00"

[[record]]
molecule = "C=CCn1c(=O)c2cnc(Nc3ccc(N4CCN(C)CC4)cc3)nc2n1-c1cccc(C(C)(C)O)n1 + COC1C(OC(N)=O)C(O)C(Oc2ccc3c(O)c(NC(=O)c4ccc(O)c(CC=C(C)C)c4)c(=O)oc3c2C)OC1(C)C"
observed = "< 6.00"

[[record]]
molecule = "C=CC(=O)N1CCN(c2nc(=O)n(-c3c(C)ccnc3C(C)C)c3nc(-c4c(O)cccc4F)c(F)cc23)C(C)C1 (stereo not given) + COC1C(OC(N)=O)C(O)C(Oc2ccc3c(O)c(NC(=O)c4ccc(O)c(CC=C(C)C)c4)c(=O)oc3c2C)OC1(C)C"
observed = "< 5.00"

[[record]]
molecule = "COc1cccc2c1C(=O)c1c(O)c3c(c(O)c1C2=O)CC(O)(C(=O)CO)CC3OC1CC(N)C(O)C(C)O1 (stereo not given) + Cc1cccc(N(C)C(=O)C2C(O)CCN2c2nc(C)cc(C(F)(F)F)c2C#N)c1"
observed = 6.17


meta.source: PubChem BioAssay AID1963849
